assayed_system: mu opiate receptor (MOR) (Rattus norvegicus, UniProt P33535)
Construct: from tissue; host or cells: striatum (membrane preparation)
Sequence (P33535 whole entry): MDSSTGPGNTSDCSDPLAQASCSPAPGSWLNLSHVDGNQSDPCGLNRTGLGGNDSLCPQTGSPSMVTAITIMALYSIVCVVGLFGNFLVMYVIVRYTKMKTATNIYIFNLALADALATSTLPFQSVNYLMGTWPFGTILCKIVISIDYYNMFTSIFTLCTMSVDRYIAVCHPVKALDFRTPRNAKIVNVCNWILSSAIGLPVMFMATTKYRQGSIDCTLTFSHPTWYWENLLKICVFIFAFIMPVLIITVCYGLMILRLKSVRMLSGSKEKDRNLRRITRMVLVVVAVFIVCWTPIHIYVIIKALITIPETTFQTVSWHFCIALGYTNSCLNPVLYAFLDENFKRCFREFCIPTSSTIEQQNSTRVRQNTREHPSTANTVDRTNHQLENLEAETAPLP
measurement_description: MOR agonist activity using [35S]GTPgS binding assay in striatal membranes
Assay type: biochemical
condition_notes: 0.1 μM compound as agonist; Series C-2 table
Listed here are molecules together with their documented MOR agonist activity ([35S]GTPgS binding to Gao).
Write the answer as a number in %, unit excluded.

These recorded examples may help you get a feel for the data.
CCN1CCC2(CC1)OCCN2S(=O)(=O)c1ccc(OC)cc1 [Compound C0089M] :: 234.5
CC(=O)c1ccc(S(=O)(=O)N2CC(CN(C)C)OC23CCNCC3)cc1 (stereo not drawn) [Compound C0118M] :: 166.2
O=C1CNC2(CCNCC2)N1Cc1ccccc1 [Compound C0114M] :: 114.0
O=C1CNC2(CCN(CC3CC3)CC2)N1Cc1ccccc1 [Compound C0124M] :: 252.0
CN1CCC2(CC1)OCCN2S(=O)(=O)c1ccc(S(C)(=O)=O)cc1 [Compound C0106M] :: 171.8

[in] Param item = CC(=O)c1ccc(S(=O)(=O)N2CCOC23CCN(CC2CC2)CC3)cc1 [Compound C0095M] ; retrieve measured MOR agonist activity ([35S]GTPgS binding to Gao).
[out] 189.1

[in] Param item = CS(=O)(=O)c1ccc(S(=O)(=O)N2CCOC23CCN(CC2CC2)CC3)cc1 [Compound C0126M] ; retrieve measured MOR agonist activity ([35S]GTPgS binding to Gao).
[out] 181.8

[in] Param item = O=S(=O)(c1ccccc1Oc1ccccc1)N1CCC2(CC1)NCCO2 [Compound C0149M-2] ; retrieve measured MOR agonist activity ([35S]GTPgS binding to Gao).
[out] 209.8

[in] Param item = C=CCN1CCC2(CC1)OCCN2S(=O)(=O)c1ccc(OC)cc1 [Compound C0091M] ; retrieve measured MOR agonist activity ([35S]GTPgS binding to Gao).
[out] 207.9

[in] Param item = CC(=O)c1ccc(S(=O)(=O)N2CCC3(CC2)OCCN3S(=O)(=O)c2ccc(C(C)=O)cc2)cc1 ; retrieve measured MOR agonist activity ([35S]GTPgS binding to Gao).
[out] 217.0

[in] Param item = COc1ccc(S(=O)(=O)N2CCSC23CCNCC3)cc1 ; retrieve measured MOR agonist activity ([35S]GTPgS binding to Gao).
[out] 156.2

[in] Param item = CN1CCC2(CC1)NCC(=O)N2Cc1ccccc1 [Compound C0105M] ; retrieve measured MOR agonist activity ([35S]GTPgS binding to Gao).
[out] 198.1

[in] Param item = COc1ccc(S(=O)(=O)N2CCOC23CCN(C(=O)OC(C)(C)C)CC3)cc1 ; retrieve measured MOR agonist activity ([35S]GTPgS binding to Gao).
[out] 175.4
